Test system: acyl-homoserine lactone synthase BmaI1 (Burkholderia mallei ATCC 23344)
Assay: BmaI1 acyl-homoserine lactone synthase inhibition – biochemical, fluorescence intensity, with counterscreen (AID 720554)
Conditions: BmaI1 enzyme assay, stronger effect = higher value, concentration not given here
Out of some 12,000 compounds screened, about 45 (0.4%) were called active. Many of the other results were omitted from the sample, so actives are more common in it than they were.

Compound	inhibition
Cn1c(-c2ccco2)n[nH]c1=S	96.5% (inactive)
Cc1cc(C(=O)CSc2ccccn2)c(C)n1Cc1cccs1	16% (inactive)
N#CC1=C(N)N(c2ccccc2)C(=O)C1	-10.5% (inactive)
COC(=O)C1=C(C)NC(C)=C(C(=O)OC)C1C(=O)OCC(=O)Nc1cccc2nsnc12	-15% (inactive)
Cc1c(CN2CC=C(c3ccccc3)CC2)c(=O)n(-c2ccccc2)n1C	9% (inactive)
c1coc(-c2nnc(-c3ccco3)nn2)c1	0% (inactive)
COc1cccc(N2C(=O)CC(n3nc(Nc4cccc(C)c4)sc3=S)C2=O)c1 (stereo not drawn)	102% (active)
COc1ccc(C(=O)Nc2nccs2)c(F)c1	9.5% (inactive)
O=S1(=O)CCN2C=CSC2=N1	17% (inactive)
CCn1c(CCC(=O)N2CCN(c3ccccn3)CC2)nc2cc(S(N)(=O)=O)ccc21	98% (active)
c1ccc(CNC2=NCCCCC2)nc1	-8.5% (inactive)
Cc1cc(C(=O)CN(Cc2ccco2)S(=O)(=O)/C=C/c2ccccc2)c(C)n1C	2.5% (inactive)
Cc1csc(=O)n1CN1CCN(C(=O)C2COc3ccccc3O2)CC1 (stereo not drawn)	17.5% (inactive)
Cc1ccccc1CSCc1nc(N)nc(Nc2ccccc2C)n1	7% (inactive)
Cc1csc(Cc2nc3ccccc3n2C)n1	16% (inactive)
Oc1ccc(/C=N/NC(=S)Nc2ccc(Cl)cc2Cl)c(O)c1O	84% (active)
O=CN1CCN(C(=S)Nc2ccc(Cl)cc2Cl)CC1	-3% (inactive)
CC(C)(C)Cc1nc2ccccc2[nH]1	20.5% (inactive)
CCN(C(=O)C(C)Sc1nc(C)cs1)c1ccccc1 (stereo not drawn)	14.5% (inactive)
CCCn1c(CCC(=O)N(C)c2ccccc2)nc2cc(S(=O)(=O)N3CCCC3)ccc21	37% (inactive)
CCOC(=O)c1c(N)sn(-c2ccccc2)c1=S	17% (inactive)
Ic1ccc(-c2ncc3ccccn23)cc1	17.5% (inactive)
Cc1cc(C(=O)Cn2cc(C(F)(F)F)ccc2=O)c(C)n1Cc1ccco1	3% (inactive)
Cc1cc(O)c(CN2CC=C(c3ccccc3)CC2)cc1C(C)C	-85.5% (active)
Cc1ccccc1-n1cc[nH]c1=S	23.5% (inactive)
Cc1sc2c(c1C)C1=NS(=O)(=O)CCN1C=N2	88.5% (active)
N#Cc1ccc(CSc2nncn2-c2ccccc2)cc1	-5.5% (inactive)
O=C(CCc1nc2ccccc2o1)Nc1cccc(-n2cnnn2)c1	16.5% (inactive)
O=c1[nH]nc(-c2ccco2)o1	96% (active)
N#Cc1c(N)sn(-c2ccccc2)c1=S	102% (active)
O=C(CCc1nc2ccccc2c(=O)[nH]1)Nc1ccccc1C(=O)NC1CC1	13.5% (inactive)
Cc1ccccc1N1C(=O)Cc2ccccc2C1=O	16.5% (inactive)
COc1ccc2c(CN3CC=C(c4ccccc4)CC3)cc(=O)oc2c1	4.5% (inactive)
CC1=C(C(=O)O)N2C(=O)[C@@H](NC(=O)[C@H](N)c3ccccc3)[C@H]2SC1	-7% (inactive)
COc1ccccc1/C=N/OCC(=O)NCc1ccc2c(c1)OCO2	16.5% (inactive)
O=S(=O)(c1ccc(N=C=S)cc1)N1CCOCC1	13% (inactive)
N/C(Cc1nc2ccccc2[nH]1)=N\O	24% (inactive)
COc1ccccc1NC1CC(=O)N(c2cccc(Cl)c2)C1=O (stereo not drawn)	17.5% (inactive)
CN=c1scc(-c2ccccc2)n1/N=C/c1ccsc1	6% (inactive)
CCN(CC)S(=O)(=O)c1ccc2c(c1)nc(CCC(=O)N1CCN(c3ccccc3)CC1)n2CC	17% (inactive)
CS(=O)(=O)CCC1NC(=O)NC1=O (stereo not drawn)	10.5% (inactive)
O=C(Nc1ccc(N2CCCCCC2)cc1)c1ccncc1	62% (inactive)
COc1ccc2c(Cl)c(-c3nnc4n3CCC4)sc2c1	6.5% (inactive)
